Each recorded value in this set is attributed to ChEMBL document CHEMBL4308834.

- Organism: Homo sapiens
- PROCEDURE DETAILS: Activation of recombinant His-tagged human cytosolic GPX4 U46C mutant expressed in Escherichia coli M15 assessed as increase in oxidized glutathione-mediated oxidation of NADPH to NADP+ using tert-butyl hydroperoxide as substrate preincubated for 5 mins followed by substrate addition measured for 6 mins by glutathione reductase enzyme coupled fluorescence assay
VALUE KIND: EC150 (µM)
Report the figure in µM without appending any unit label.

Recorded EC150 for "NS(=O)(=O)c1ccc(NC(=S)NCCO)cc1" , please? 147

Note, next up: "CNCCNS(=O)(=O)c1ccc(NC(=S)NC2CCCC2)cc1" 121

Note, next up: "CC(C)(C)NC(=S)Nc1ccc(S(=O)(=O)NCCN)cc1" 29

Note, next up: "NS(=O)(=O)c1ccc(NC(S)=NCc2ccccc2)cc1" 255

Note, next up: "NCCNS(=O)(=O)c1ccc(NC(=S)NC2CCCC2)cc1" 20

Note, next up: "NS(=O)(=O)c1ccc(NC(S)=NCc2ccc(Cl)cc2)cc1" 248

Note, next up: "CN1CCN(C(S)=Nc2ccc(S(N)(=O)=O)cc2)CC1" 285

Note, next up: "NCCCNS(=O)(=O)c1ccc(NC(=S)NC2CCCC2)cc1" 301

====

- Species on record: Homo sapiens
- PROCEDURE DETAILS: Activation of recombinant His-tagged human cytosolic GPX4 U46C mutant expressed in Escherichia coli M15 assessed as increase in oxidized glutathione-mediated oxidation of NADPH to NADP+ at 200 uM using tert-butyl hydroperoxide as substrate preincubated for 5 mins followed by substrate addition measured for 6 mins by glutathione reductase enzyme coupled fluorescence assay relative to control
VALUE KIND: Activity

Recorded Activity for "NCCCCNS(=O)(=O)c1ccc(NC(=S)NC2CCCC2)cc1" , please? < 115%

Note, next up: "NCCNS(=O)(=O)c1ccc(NC(=S)NCc2ccc(Cl)cc2)cc1" < 115%

Note, next up: "CCNS(=O)(=O)c1ccc(NC(=S)NC2CCCC2)cc1" < 115%

Note, next up: "CC(C)(C)NC(=S)Nc1ccc(S(=O)(=O)NCCN)cc1" 318%

Note, next up: "NCCNS(=O)(=O)c1ccc(NC(=S)NC2CCCC2)cc1" 219%

Note, next up: "CCNC(=S)Nc1ccc(S(=O)(=O)NCCN)cc1" < 115%

Note, next up: "NS(=O)(=O)c1ccc(NC(=S)NCCO)cc1" 167%

Note, next up: "O=S(=O)(NCCO)c1ccc(NC(=S)NCc2ccc(Cl)cc2)cc1" < 115%

Note, next up: "CNCCNS(=O)(=O)c1ccc(NC(=S)NC2CCCC2)cc1" 167%

Note, next up: "NS(=O)(=O)c1ccc(NC(S)=NCc2ccccc2)cc1" 129%

Note, next up: "NCCNS(=O)(=O)c1ccc(NC(=S)NC2CCCCCC2)cc1" < 115%

Note, next up: "O=S(=O)(NCCO)c1ccc(NC(=S)NC2CCCC2)cc1" < 115%

====

- Organism: Homo sapiens
- PROCEDURE DETAILS: Activation of recombinant His-tagged human cytosolic GPX4 U46C mutant expressed in Escherichia coli M15 assessed as increase in oxidized glutathione-mediated oxidation of NADPH to NADP+ at 0.4 to 250 uM using tert-butyl hydroperoxide as substrate preincubated for 5 mins followed by substrate addition measured for 6 mins by glutathione reductase enzyme coupled fluorescence assay relative to control
VALUE KIND: Emax (%)
Report the figure in % without appending any unit label.

Recorded Emax for "CNCCNS(=O)(=O)c1ccc(NC(=S)NC2CCCC2)cc1" , please? 209

Note, next up: "NS(=O)(=O)c1ccc(NC(S)=NCc2ccc(Cl)cc2)cc1" 263

Note, next up: "NS(=O)(=O)c1ccc(NC(S)=NCc2ccccc2)cc1" 300

Note, next up: "NCCCNS(=O)(=O)c1ccc(NC(=S)NC2CCCC2)cc1" 214
